Overview of recorded Stability (half-life (hr.)) for various binders
Target: HLA-A24.02 class I MHC molecule (prepared complex) (human)
Assay: dissociation of peptide-MHC-I complex at 37 C, 125I-labelled b2m, scintillation
Settings: remark: other sources report otherwise
Outcome measure: Stability (half-life (hr.)) (min)

IMQLMPFGCL = 0
QLIMQLMPF = 22.1
MQLMPFGCLL = 0
VQLIMQLMPF = 0
